testDetails: Quantitative High-Throughput drug screen in 47 multiple myeloma cell lines against the NCATS MIPE library collection: VP6_DJ cell viability assay (AID 1919867); note: nearly all actives have a fitted effect of over 40% in size
conditionDetails: ATP luminescence, 48 h; series mostly up to 45.8 µM
Records with an inconclusive call do not appear. Activity calls are given as the source filed them. Calls come from the whole dose curve; as a rule, active = well fitted cell-killing curve with a large enough effect; inconclusive = small, poorly fitted or top-dose-only effect, or effect the other way; inactive = no such curve, though single readings can be large or run the other way.
Your answer must be one of the following: active, inactive

// query Record request — test call for "Cn1cc(-c2cnn3c(N)c(Br)c([C@H]4CCCNC4)nc23)cn1"
// result active

// query What did the test return for "O=C(CCCCCCC(=O)Nc1cccnc1)NO" ?
// result active

// query Name the outcome recorded for C=C1CCC2[C@](C)(CO)C(O)CC[C@]2(C)C1CC=C1C(=O)OCC1O (stereo partly specified) in the assay.
// result inactive

// query What did the test return for "c1ccc(CNc2nc(NCc3ccccc3)c3ccccc3n2)cc1" ?
// result active

// query Answer briefly: the call reported for "COc1cc2c(cc1OC)[C@@H]1C(=O)c3ccc4c(c3O[C@@H]1CO2)C=CC(C)(C)O4" in this assay.
// result active

// query Outcome? "O=C(C=Cc1ccc(CN(CCO)CCc2c[nH]c3ccccc23)cc1)NO"
// result active

###

testDetails: qHTS Screen of the MIPE 4.0 Collection Against Ewings Sarcoma (TC71) (AID 1259253); note: nearly all actives have a fitted effect of over 40% in size
conditionDetails: TC71 Ewing sarcoma viability, CellTiter-Glo, 48 h; series mostly up to 45.8 µM
Method: There is a large unmet medical need for treatments for Ewing sarcoma, a pediatric sarcoma. […] Using the NCATS developed oncology compound library called the Mechanism of Interrogation Plate (MIPE), four Ewing sarcoma cell lines were evaluated (TC32, TC71, RDES, EW8). Compounds, in a 12-point titration series, were incubated with cells for 48 hours and the read out was cell viability (CellTiter-Glo from Promega). […]
Inconclusive results are not listed. The source made the active and inactive calls. Calls come from the whole dose curve; as a rule, active = well fitted inhibition curve with a large enough effect; inconclusive = small, poorly fitted or top-dose-only effect; inactive = no such curve, though single readings can be large or run the other way.
Classes to choose from: active, inactive

// query For "CN(C)c1ccc(C(=O)NCCCCCCC(=O)NO)cc1" , what call appears in the results of this test?
// result active

// query // outcome(item) with item = O=C1NC(O)CCN1[C@@H]1O[C@H](CO)[C@H](O)[C@H]1O (some centres undefined)
// result inactive

// query Which result was noted for this compound in the test: "C=CC(=O)N1CCc2ccc(-n3c(=O)ccc4cnc5ccc(-c6cnn(C)c6)cc5c43)cc21"
// result active

// query # fetch the recorded call for "CC(=O)O[C@H]1C[C@@H]2CC[C@H]3[C@H]4C[C@H]([N+]5(C)CCCCC5)[C@@H](OC(C)=O)[C@@]4(C)CC[C@@H]3[C@@]2(C)C[C@H]1N1CCCCC1" here
// result active

// query How was "CC(C)(O)CC[C@@H](O)[C@](C)(O)[C@H]1CC[C@@]2(O)C3=CC(=O)[C@@H]4C[C@@H](O)[C@@H](O)C[C@]4(C)[C@@H]3CC[C@]12C" classified in this test?
// result inactive

// query Outcome? "O=C(Nc1cc2cc[nH]c2cn1)c1ccccc1"
// result active

// query Which outcome was assigned to "O=C(NC1CC1)c1cccc(-c2ccc3c(NC(=O)C4CC4)n[nH]c3c2)c1" in this test?
// result active

// query Can you look up the reported call for "Cc1nc(NC(=O)N2CCC[C@@H]2C(N)=O)sc1-c1ccnc(C(C)(C)C(F)(F)F)c1" for me?
// result active

// query How was "CC(Oc1ccc(O)cc1)(P(=O)(O)O)P(=O)(O)O" classified in this test?
// result inactive

Data provenance: PubChem BioAssay (NCATS)
